Data provenance: PubChem BioAssay (NCI)

System: SF-295 CNS
Test: NCI tumour cell line growth inhibition, 48 h
Outcome measure: TGI

> print(dat)
                                    compound  observed.result
 1  COc1cc2c3c(c1OC)-c1cc4c(cc1CC3(C#N)N(C(=O)c1ccccc1)CC2)OCO4 (stereo not given)          58.7 µM
 2  COc1ccc2c(c1)CCCN2CCCCCCCCCCN(CCC(C)C)CCC(C)C          27.4 µM
 3  COc1cc(/C=C\c2cc(OC)c(OC)c(OC)c2)cc(N/C=C\C(=O)c2cc(OC)c(OC)c(OC)c2)c1OC         > 100 µM
 4     COC(=O)/C=C\C(C#N)(C#N)N=Cc1cc(Br)cs1          31.8 µM
 5  COc1ccc(N=NC(=O)NC(CC(C)C)C(=O)NC(C)C(=O)O)cc1 (stereo not given)         > 100 µM
 6  CCOC(=O)/C=C(\C(=O)OCC)n1ccc(=O)n(Cc2cn(CCCCOC(C)=O)nn2)c1=O        > 62.1 µM
 7  COc1ccc(/C(=C\C=C(C#N)C#N)Sc2nc3ccccc3s2)cc1          39.9 µM
 8  CC(C)=CCc1cc2c(cc1O)OC[C@H]1c3cc4c(cc3O[C@@H]21)OCO4         > 100 µM
 9  COC1=C(Br)[C@H](O)[C@@]2(C=C1Br)CC(C(=O)NCCCOc1c(Br)cc(C(O)CNC(C)=O)cc1Br)=NO2 (stereo not given in full)          > 10 µM
10  C=CCN(C(=O)CNC(=O)C(F)(F)F)c1cc(OCc2ccccc2)c2c(c1)c(C)cn2S(=O)(=O)c1ccccc1         > 100 µM
11  CSc1ccsc1-c1sc(-c2cc(SC)c(-c3sc(-c4cc(SC)c(-c5sccc5SC)s4)cc3SC)s2)cc1SC         > 100 µM
12  Cc1cc(C(F)(F)F)cc(-n2nc(NS(=O)(=O)c3cc(C)c(Cl)cc3S)nc2N)n1         > 100 µM
13  COc1ccc(C2=C3SC=c4ccccc4=C3ON=C2c2ccccc2)cc1         > 100 µM
14  COc1ccc2c(c1)c[n+](C)c1c3cc(OC)c(OC)cc3ccc21          17.8 µM
15  COc1ccc(C[C@H]2COC(=O)[C@@H]2Cc2cccc(Br)c2)cc1OC         > 100 µM
16           C/C(=N\NC(=S)N1CCCCCC1)c1ccccn1           2.3 µM
17  COc1ccc2c(C(=O)c3cn(CCN4CCOCC4)c4ccccc34)cccc2c1        > 54.8 µM
18    CCc1nc(N)nc(N)c1-c1ccc([N+](C)(C)C)cc1         > 100 µM
19  CC12CCC3c4ccc(O)cc4CCC3C1C/C(=N\O)C2O (stereo not given)         > 100 µM
20  CC(C)(C)[Si](C)(C)OC1C(=O)C[C@H]2CCCC[C@@H]12 (stereo not given in full)         > 100 µM
21  O=S(=O)(Nc1ccc(Cl)cc1Cl)c1ccc(-c2cnc(C3CC3)o2)cc1           3.4 µM
22  O=[P@@]1(c2ccccc2)O[C@H](COCc2ccccc2)[C@@H](OCc2ccccc2)[C@H](OCc2ccccc2)[C@H]1NCc1ccccc1          6.68 µM
23  COC(=O)c1cc2c(s1)-c1nccc3c1c(nc1ccccc13)C2=O         > 100 µM
24  CN1CC[C@@H](c2c(O)cc(O)c3c(=O)cc(-c4ccc(C(F)(F)F)cc4Cl)oc23)[C@@H]1CO          36.4 µM
25              O=C1NI(C#Cc2ccccc2)c2ccccc21         > 100 µM
